experimental.system: Human sputum neutrophil elastase (Homo sapiens, UniProt P08246)
Construct: purchased Elastin Products Co; host or cells: human sputum (natural source)
Sequence (P08246 30-247 limits assumed): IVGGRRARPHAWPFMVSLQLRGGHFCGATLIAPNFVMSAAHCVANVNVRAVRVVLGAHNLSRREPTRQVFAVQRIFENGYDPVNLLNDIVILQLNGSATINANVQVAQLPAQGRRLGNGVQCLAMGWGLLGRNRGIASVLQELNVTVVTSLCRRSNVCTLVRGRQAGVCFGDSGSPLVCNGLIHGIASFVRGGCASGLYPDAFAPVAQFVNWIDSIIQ
assay.explanation: Inhibitor IC50 against human neutrophil elastase (fluorogenic MeOSuc-AAPV-AMC substrate)
Format: biochemical
experimental.parameters: 20 min preincubation, read-out: HNE IC50
Attribute: IC50

Use these answered entries as a reference point.
{"columns": ["compound", "experimental.system", "IC50"],
 "data": [
  ["CCc1cc(OC)cc2nc(-c3cccnc3N3CC[C@H]([N+](C)(C)C)C3)oc(=O)c12 [Compound 232, acetate]", "Human sputum neutrophil elastase (Homo sapiens, UniProt P08246)", "< 15 nM"],
  ["CCc1cc(OC)cc2nc(-c3cccnc3N3CC[C@@H](N4CCS(=O)(=O)CC4)C3)oc(=O)c12", "Human sputum neutrophil elastase (Homo sapiens, UniProt P08246)", "< 15 nM"],
  ["COc1cc(C2CC2)c2c(=O)oc(-c3cccnc3N3CCN(CCN(C)C)CC3)nc2c1", "Human sputum neutrophil elastase (Homo sapiens, UniProt P08246)", "61 to 150 nM"],
  ["COc1cc(C2CC2)c2c(=O)oc(-c3cccnc3N3CCN(CCN4CCOCC4)CC3)nc2c1", "Human sputum neutrophil elastase (Homo sapiens, UniProt P08246)", "61 to 150 nM"],
  ["COc1cc(C2CC2)c2c(=O)oc(-c3cccnc3N3CC[C@@H](N(C)C)C3)nc2c1", "Human sputum neutrophil elastase (Homo sapiens, UniProt P08246)", "61 to 150 nM"],
  ["COc1cccc2nc(-c3cccnc3-n3ccnc3)oc(=O)c12", "Human sputum neutrophil elastase (Homo sapiens, UniProt P08246)", "> 150 nM"]
]}

// compound CCc1cc(OC)cc2nc(-c3cccnc3N3CC[C@@H](N(C)CCO)C3)oc(=O)c12 , assay Human sputum neutrophil elastase (Homo sapiens, UniProt P08246), IC50 value: < 15 nM

// compound CCc1cc(OC)cc2nc(-c3cccnc3N3CCCN(C)CC3)oc(=O)c12 , assay Human sputum neutrophil elastase (Homo sapiens, UniProt P08246), IC50 value: < 15 nM

// compound COc1cc(C(C)C)c2c(=O)oc(-c3cccnc3N3CCCN(C)CC3)nc2c1 , assay Human sputum neutrophil elastase (Homo sapiens, UniProt P08246), IC50 value: 61 to 150 nM

// compound CCc1cc(OC)cc2nc(-c3cccnc3N3CC[C@H](N4CCS(=O)(=O)CC4)C3)oc(=O)c12 , assay Human sputum neutrophil elastase (Homo sapiens, UniProt P08246), IC50 value: < 15 nM

// compound CCc1cc(OC)cc2nc(-c3cccnc3N3CCC[C@H]3CN3CCCC3)oc(=O)c12 , assay Human sputum neutrophil elastase (Homo sapiens, UniProt P08246), IC50 value: < 15 nM

// compound Cc1cccc2nc(-c3cccnc3N3CCCC(N(C)C)C3)oc(=O)c12 (centres unmarked) , assay Human sputum neutrophil elastase (Homo sapiens, UniProt P08246), IC50 value: 61 to 150 nM

// compound CCc1cc(N(C)C)cc2nc(-c3cccnc3N(C)C3CCN(C)C3)oc(=O)c12 (centres unmarked) , assay Human sputum neutrophil elastase (Homo sapiens, UniProt P08246), IC50 value: > 150 nM

// compound COc1cc(C2CCC2)c2c(=O)oc(-c3cccnc3N3CC[C@@H](N(C)C)C3)nc2c1 , assay Human sputum neutrophil elastase (Homo sapiens, UniProt P08246), IC50 value: > 150 nM

// compound Cc1cccc2nc(-c3cccnc3N3CCN(CCN4CCOCC4)CC3)oc(=O)c12 , assay Human sputum neutrophil elastase (Homo sapiens, UniProt P08246), IC50 value: 16 to 60 nM

// compound CCc1cccc2nc(-c3cccnc3N3CCC[C@H]3CN3CCCC3)oc(=O)c12 , assay Human sputum neutrophil elastase (Homo sapiens, UniProt P08246), IC50 value: < 15 nM

// compound CCc1cc(OC)cc2nc(-c3cccnc3N3CCC(N(C)C)CC3)oc(=O)c12 , assay Human sputum neutrophil elastase (Homo sapiens, UniProt P08246), IC50 value: 16 to 60 nM
